Data credit: paper PMC4280904

- Test Details: Single dose and repeated
- Assay type: in vivo, beagle dogs
- Condition Details: both, beagle, dog, plasma, po, 30 mg/kg, Vz/f, 30 mg/kg tablets p.o.; Day 5, fed
Readout Kind: Vd/F
Reply with a number, then the unit it belongs to.

May I ask what Vd/F has been recorded for O=C1N=C(N2CCOCC2)CN1c1ccc(Cl)cc1 [Imepitoin] ?
1.43 L/kg

----------
- Test Details: Single dose and repeated
- Type: in vivo, beagle dogs
- Condition Details: male, beagle, dog, plasma, po, 30 mg/kg, Vz/f, 30 mg/kg tablets p.o.; Males
Readout Kind: Vd/F (L/kg)
Return type: number; implicit unit L/kg.

May I ask what Vd/F has been recorded for O=C1N=C(N2CCOCC2)CN1c1ccc(Cl)cc1 [Imepitoin] ?
0.899

----------
- System: plasma protein
- Test Details: In vitro plasma protein binding
- Type: in vitro ADME
- Condition Details: male, human, plasma (heparinized)
Readout Kind: fraction unbound at 15 min

Query the reported fraction unbound at 15 min for plasma protein; item: O=C1N=C(N2CCOCC2)CN1c1ccc(Cl)cc1 [Imepitoin]
0.41 to 0.43

----------
- Test Details: Single dose and repeated
- Assay type: in vivo, beagle dogs
- Condition Details: both, beagle, dog, plasma, po, 30 mg/kg, Cmax, 30 mg/kg tablets p.o.; Fed
Readout Kind: Cmax (ng/mL)
Return type: number; implicit unit ng/mL.

May I ask what Cmax has been recorded for O=C1N=C(N2CCOCC2)CN1c1ccc(Cl)cc1 [Imepitoin] ?
14900

----------
- Test Details: Single dose and repeated
- Type: in vivo, beagle dogs
- Condition Details: both, beagle, dog, plasma, po, 30 mg/kg, Cl/f, 30 mg/kg tablets p.o.; Fasted
Readout Kind: CL/F (mL/min/kg)
Return type: number; implicit unit mL/min/kg.

May I ask what CL/F has been recorded for O=C1N=C(N2CCOCC2)CN1c1ccc(Cl)cc1 [Imepitoin] ?
5.33

----------
- Test Details: Dose linearity of imepitoin after oral dosing
- Assay type: in vivo, beagle dogs
- Condition Details: both, beagle, dog, plasma, po, 50 mg/kg
Readout Kind: Tmax (h)
Return type: number; implicit unit h.

May I ask what Tmax has been recorded for O=C1N=C(N2CCOCC2)CN1c1ccc(Cl)cc1 [Imepitoin] ?
18

----------
- Test Details: Single dose and repeated
- Type: in vivo, beagle dogs
- Condition Details: male, beagle, dog, plasma, po, 30 mg/kg, Tmax, 30 mg/kg tablets p.o.; Males
Readout Kind: Tmax (h)
Return type: number; implicit unit h.

May I ask what Tmax has been recorded for O=C1N=C(N2CCOCC2)CN1c1ccc(Cl)cc1 [Imepitoin] ?
2.3

----------
- Test Details: Dose linearity of imepitoin after oral dosing
- Format: in vivo, beagle dogs
- Condition Details: both, beagle, dog, plasma, po, 20 mg/kg
Readout Kind: Tmax (h)
Return type: number; implicit unit h.

May I ask what Tmax has been recorded for O=C1N=C(N2CCOCC2)CN1c1ccc(Cl)cc1 [Imepitoin] ?
10.7

----------
- Test Details: Single dose and repeated
- Type: in vivo, beagle dogs
- Condition Details: both, beagle, dog, plasma, po, 30 mg/kg, Cl/f, 30 mg/kg tablets p.o.; Day 0, fed
Readout Kind: CL/F (mL/min/kg)
Return type: number; implicit unit mL/min/kg.

May I ask what CL/F has been recorded for O=C1N=C(N2CCOCC2)CN1c1ccc(Cl)cc1 [Imepitoin] ?
5.42

----------
- Target Of Assay: CYP1A2 (Homo sapiens)
- Sequence (P05177 whole entry): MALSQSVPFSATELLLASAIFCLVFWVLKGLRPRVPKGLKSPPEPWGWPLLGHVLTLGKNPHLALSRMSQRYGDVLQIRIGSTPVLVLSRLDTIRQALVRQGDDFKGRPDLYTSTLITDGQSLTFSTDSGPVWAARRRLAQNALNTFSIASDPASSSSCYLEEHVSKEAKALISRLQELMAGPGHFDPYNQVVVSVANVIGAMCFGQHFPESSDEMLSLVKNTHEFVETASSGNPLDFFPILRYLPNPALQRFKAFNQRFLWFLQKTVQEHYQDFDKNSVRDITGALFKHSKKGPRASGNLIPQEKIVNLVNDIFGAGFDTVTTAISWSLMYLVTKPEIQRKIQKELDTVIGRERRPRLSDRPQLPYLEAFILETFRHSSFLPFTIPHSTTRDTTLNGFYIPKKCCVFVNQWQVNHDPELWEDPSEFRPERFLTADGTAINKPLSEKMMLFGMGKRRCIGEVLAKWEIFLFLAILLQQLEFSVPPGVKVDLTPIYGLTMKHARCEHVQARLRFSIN
- Test Details: In vitro enzyme inhibition, recombinant CYP, fluorescent metabolites
- Type: in vitro ADME
Readout Kind: IC50

May I ask what IC50 has been recorded for O=C1N=C(N2CCOCC2)CN1c1ccc(Cl)cc1 [Imepitoin] ?
> 100 µM

----------
- Test Details: Single dose and repeated
- Format: in vivo, beagle dogs
- Condition Details: male, beagle, dog, plasma, po, 30 mg/kg, Cmax, 30 mg/kg tablets p.o.; Males
Readout Kind: Cmax (ng/mL)
Return type: number; implicit unit ng/mL.

May I ask what Cmax has been recorded for O=C1N=C(N2CCOCC2)CN1c1ccc(Cl)cc1 [Imepitoin] ?
14200

----------
- Test Details: Single dose and repeated
- Type: in vivo, beagle dogs
- Condition Details: both, beagle, dog, plasma, po, 30 mg/kg, Tmax, 30 mg/kg tablets p.o.; Fed
Readout Kind: Tmax (h)
Return type: number; implicit unit h.

May I ask what Tmax has been recorded for O=C1N=C(N2CCOCC2)CN1c1ccc(Cl)cc1 [Imepitoin] ?
2.02

----------
- Test Details: Single dose and repeated
- Format: in vivo, beagle dogs
- Condition Details: male, beagle, dog, plasma, po, 30 mg/kg, AUCinf, 30 mg/kg tablets p.o.; Males
Readout Kind: AUC(0-inf) (ng·h/mL)
Return type: number; implicit unit ng·h/mL.

May I ask what AUC(0-inf) has been recorded for O=C1N=C(N2CCOCC2)CN1c1ccc(Cl)cc1 [Imepitoin] ?
75500

----------
- Test Details: Single dose and repeated
- Format: in vivo, beagle dogs
- Condition Details: female, beagle, dog, plasma, po, 30 mg/kg, Vz/f, 30 mg/kg tablets p.o.; Females
Readout Kind: Vd/F (L/kg)
Return type: number; implicit unit L/kg.

May I ask what Vd/F has been recorded for O=C1N=C(N2CCOCC2)CN1c1ccc(Cl)cc1 [Imepitoin] ?
0.833

----------
- Test Details: Single dose and repeated
- Type: in vivo, beagle dogs
- Condition Details: both, beagle, dog, plasma, po, 30 mg/kg, AUCinf, 30 mg/kg tablets p.o.; Fasted
Readout Kind: AUC(0-inf) (ng·h/mL)
Return type: number; implicit unit ng·h/mL.

May I ask what AUC(0-inf) has been recorded for O=C1N=C(N2CCOCC2)CN1c1ccc(Cl)cc1 [Imepitoin] ?
90300

----------
- Test Details: Single dose and repeated
- Format: in vivo, beagle dogs
- Condition Details: both, beagle, dog, plasma, po, 30 mg/kg, Cl/f, 30 mg/kg tablets p.o.; Fed
Readout Kind: CL/F (mL/min/kg)
Return type: number; implicit unit mL/min/kg.

May I ask what CL/F has been recorded for O=C1N=C(N2CCOCC2)CN1c1ccc(Cl)cc1 [Imepitoin] ?
6.95

----------
- Test Details: Single dose and repeated
- Assay type: in vivo, beagle dogs
- Condition Details: both, beagle, dog, plasma, po, 30 mg/kg, Cmax, 30 mg/kg tablets p.o.; Day 0, fed
Readout Kind: Cmax (ng/mL)
Return type: number; implicit unit ng/mL.

May I ask what Cmax has been recorded for O=C1N=C(N2CCOCC2)CN1c1ccc(Cl)cc1 [Imepitoin] ?
15000

----------
- Test Details: Single dose and repeated
- Format: in vivo, beagle dogs
- Condition Details: both, beagle, dog, plasma, po, 30 mg/kg, Cl/f, 30 mg/kg tablets p.o.; Day 5, fed
Readout Kind: CL/F (mL/min/kg)
Return type: number; implicit unit mL/min/kg.

May I ask what CL/F has been recorded for O=C1N=C(N2CCOCC2)CN1c1ccc(Cl)cc1 [Imepitoin] ?
8.92

----------
- Test Details: Single dose and repeated
- Assay type: in vivo, beagle dogs
- Condition Details: both, beagle, dog, plasma, po, 30 mg/kg, Tmax, 30 mg/kg tablets p.o.; Day 0, fed
Readout Kind: Tmax (h)
Return type: number; implicit unit h.

May I ask what Tmax has been recorded for O=C1N=C(N2CCOCC2)CN1c1ccc(Cl)cc1 [Imepitoin] ?
2.6

----------
- Test Details: Single dose and repeated
- Type: in vivo, beagle dogs
- Condition Details: both, beagle, dog, plasma, po, 30 mg/kg, AUCinf, 30 mg/kg tablets p.o.; Fed
Readout Kind: AUC(0-inf) (ng·h/mL)
Return type: number; implicit unit ng·h/mL.

May I ask what AUC(0-inf) has been recorded for O=C1N=C(N2CCOCC2)CN1c1ccc(Cl)cc1 [Imepitoin] ?
69200

----------
- Test Details: Single dose and repeated
- Assay type: in vivo, beagle dogs
- Condition Details: both, beagle, dog, plasma, po, 30 mg/kg, Tmax, 30 mg/kg tablets p.o.; Day 5, fed
Readout Kind: Tmax (h)
Return type: number; implicit unit h.

May I ask what Tmax has been recorded for O=C1N=C(N2CCOCC2)CN1c1ccc(Cl)cc1 [Imepitoin] ?
1.44

----------
- System: plasma protein
- Test Details: In vitro plasma protein binding
- Format: in vitro ADME, rats
- Condition Details: rat, heparinized plasma
Readout Kind: fraction unbound at 15 min, 10 μg/mL
Form rule: numeric answer, no unit written next to it.

May I ask what fraction unbound at 15 min, 10 μg/mL has been recorded for O=C1N=C(N2CCOCC2)CN1c1ccc(Cl)cc1 [Imepitoin] ?
0.5

----------
- Test Details: Single dose and repeated
- Type: in vivo, beagle dogs
- Condition Details: both, beagle, dog, plasma, po, 30 mg/kg, Cmax, 30 mg/kg tablets p.o.; Fasted
Readout Kind: Cmax (ng/mL)
Return type: number; implicit unit ng/mL.

May I ask what Cmax has been recorded for O=C1N=C(N2CCOCC2)CN1c1ccc(Cl)cc1 [Imepitoin] ?
17200

----------
- Tested on: plasma protein
- Test Details: In vitro plasma protein binding
- Format: in vitro ADME
- Condition Details: male, human, heparinized plasma
Readout Kind: fraction unbound at 15 min, 1 μg/mL

May I ask what fraction unbound at 15 min, 1 μg/mL has been recorded for O=C1N=C(N2CCOCC2)CN1c1ccc(Cl)cc1 [Imepitoin] ?
0.41
